- System: H358 cells
- procedure_details: Antiproliferative activity against H358 cells (Cell Titer Glow, ultra-low attachment plate)
- Assay type: cell-based
- run_parameters: Homo sapiens, NCI-H358, 72 h, three days after addition of compound
- Description: 2500 H358 cells were seeded in a 96-well ultra-low attachment plate (corning, 7007). After one day of growth, a serially diluted compound (a maximum concentration of 5 μM, 5-fold dilution, a total of five doses) was added. Three days after the addition of the compound, Cell Titer Glow (Promega, G9681) was added to evaluate pellet growth, and the IC50 value was calculated.
pIC50: −log10 of the molar value.
Items are presented alongside their recorded pIC50.

chemical_smiles	pIC50
C=CC(=O)N1CC2(CCN(c3nc(O[C@H]4C[C@@H](N5CC6(CCC6)C5)C4)nc4c(OCC(F)(F)F)c(-c5c(C)ccc6[nH]ncc56)c(C5CC5)cc34)CC2)C1	> 6.52
C=CC(=O)N1CC2(CCN(c3nc(N4CC(N5CC6(CC6)C5)C4)nc4c(OCC(F)(F)F)c(-c5c(C)ccc6[nH]cnc56)c(C5CC5)cc34)CC2)C1	> 6.52
C=CC(=O)N1CCC2(CC1)CN(c1nc(N3CC(N4CC5(CC5)C4)C3)nc3c(OCC(F)(F)F)c(-c4c(C)ccc5[nH]ncc45)c(C4CC4)cc13)C2	> 6.52
C=CC(=O)N1CC2(CCN(c3nc(O[C@H]4C[C@H](N(C)C)C4)nc4c(OCC(F)(F)F)c(-c5c(C)ccc6[nH]ncc56)c(C5CC5)cc34)CC2)C1	6.00 to 6.52
C=CC(=O)N1CC2(CCN(c3nc(N4CC(N(C)CCCO)C4)nc4c(OCC(F)(F)F)c(-c5c(C)ccc6[nH]ncc56)c(C5CC5)cc34)CC2)C1	> 6.52

Cited source for all entries: patent US12391692B2
